Origin of measurements: ChEMBL document CHEMBL1961873

measured on: Serine/threonine-protein kinase Nek2 (Homo sapiens) (UniProt P51955)
Sequence (whole entry): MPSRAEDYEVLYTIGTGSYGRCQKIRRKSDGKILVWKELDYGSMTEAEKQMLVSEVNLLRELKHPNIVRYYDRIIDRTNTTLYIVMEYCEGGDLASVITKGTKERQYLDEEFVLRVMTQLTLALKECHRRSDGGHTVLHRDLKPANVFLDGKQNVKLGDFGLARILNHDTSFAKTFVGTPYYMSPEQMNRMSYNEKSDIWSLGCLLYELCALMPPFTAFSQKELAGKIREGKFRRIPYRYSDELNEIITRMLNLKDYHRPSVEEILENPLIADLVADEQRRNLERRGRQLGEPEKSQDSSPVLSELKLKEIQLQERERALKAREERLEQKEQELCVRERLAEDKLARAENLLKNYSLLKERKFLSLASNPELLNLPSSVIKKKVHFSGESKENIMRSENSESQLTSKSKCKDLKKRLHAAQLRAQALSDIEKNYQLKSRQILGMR
condition info: at 0.1 µM;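 further: mean inhibition value from the GSK PKIS kinase screening panel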
property name: inhibition (%)
Give the quantity in %, number only.

Answered examples (6):
Cc1nc(-c2ccccc2)n2nc(NCCCN3CCOCC3)ncc12: 3.14
Cc1ccc(O)cc1Nc1ccnc2ccc(S(C)(=O)=O)cc12: 5.76
CCn1c(-c2nonc2N)nc2c(C#CC(C)(C)O)nc(OCCNC)cc21: 5.33
CCn1c(-c2nonc2N)nc2ccc(F)cc21: 6.07
COC(=O)c1cncc(/C=C/c2c(C)cc(O)cc2C)c1: 4.54
CN1CCN(C(=O)c2ccc(NC(=O)Nc3ccc(N(C)c4ccnc(Nc5ccc(CS(C)(=O)=O)cc5)n4)cc3)cc2)CC1: 2.78

Query block: Can you look up the measured inhibition of `Cc1cc(-c2ccccn2)cc(C)c1/C=C/c1cncc(-c2nn[nH]n2)c1` for me?
Result block: 5.75

Query block: Can you look up the measured inhibition of `COc1cccc(-n2ncc3c(N/N=C/c4ccc(S(C)(=O)=O)cc4)ncnc32)c1` for me?
Result block: 2.11
